- tested.on: CK1γ1 (Homo sapiens, UniProt Q9HCP0)
- Construct: purchased Invitrogen
- Sequence (Q9HCP0 whole entry): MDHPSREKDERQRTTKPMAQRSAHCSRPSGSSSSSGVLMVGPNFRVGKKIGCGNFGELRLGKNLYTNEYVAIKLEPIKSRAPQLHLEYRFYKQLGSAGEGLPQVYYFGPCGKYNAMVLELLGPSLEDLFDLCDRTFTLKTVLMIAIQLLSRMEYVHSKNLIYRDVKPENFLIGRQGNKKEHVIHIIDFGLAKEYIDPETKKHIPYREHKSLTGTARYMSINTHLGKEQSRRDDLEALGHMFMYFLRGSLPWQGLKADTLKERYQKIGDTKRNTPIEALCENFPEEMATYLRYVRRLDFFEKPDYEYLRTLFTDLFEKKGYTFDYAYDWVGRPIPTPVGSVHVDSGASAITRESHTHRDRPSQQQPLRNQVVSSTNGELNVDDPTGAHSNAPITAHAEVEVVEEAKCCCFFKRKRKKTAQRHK
- experiment.summary: In vitro kinase assay (33P, peptide substrate)
- Type: biochemical
- run.parameters: CK1γ1, 50 μM ATP; read-out: IC50
pIC50: −log10 of the molar value.

| molecule.smiles | pIC50 |
| --- | --- |
| NC(=O)c1cc(-c2ccncc2)c[nH]1 | < 4.00 |

====

- tested.on: CK1δ (Homo sapiens)
- Construct: purchased Upstate
- Sequence (P48730 whole entry): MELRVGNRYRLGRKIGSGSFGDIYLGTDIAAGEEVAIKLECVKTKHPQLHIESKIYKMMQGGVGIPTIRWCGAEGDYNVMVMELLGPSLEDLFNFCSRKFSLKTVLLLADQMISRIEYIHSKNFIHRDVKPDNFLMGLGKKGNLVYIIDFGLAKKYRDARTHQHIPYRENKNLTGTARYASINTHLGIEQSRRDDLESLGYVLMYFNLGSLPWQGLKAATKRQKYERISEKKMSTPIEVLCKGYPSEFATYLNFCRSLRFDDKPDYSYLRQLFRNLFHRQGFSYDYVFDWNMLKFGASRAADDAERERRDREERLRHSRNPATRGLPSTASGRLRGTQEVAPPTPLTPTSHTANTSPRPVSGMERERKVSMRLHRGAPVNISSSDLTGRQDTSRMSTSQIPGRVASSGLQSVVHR
- experiment.summary: In vitro kinase assay (33P, peptide substrate)
- Assay type: biochemical
pIC50: −log10 of the molar value.

| molecule.smiles | pIC50 |
| --- | --- |
| COc1cc(OC)c(C=C2C(O)=Nc3ccccc32)c(OC)c1 | 5.82 |
